# System: NCI-H23 lung
# PROCEDURE TEXT: NCI tumour cell line growth inhibition, 48 h; in the data active = GI50 below about 0.43 µM; inactive = the rest
API: response.call in active, inactive

Examples with answers:
| COMPOUND | MEASURED ON | CLASS |
| --- | --- | --- |
| O=S(=O)(NCCCNc1nccc(-c2c(-c3ccc(F)cc3)nc3sccn23)n1)c1ccc2ccccc2c1 | NCI-H23 lung | inactive |
| Cc1ccc(NC(=O)c2cc(S(=O)(=O)N3C(=O)NC(=O)NS3(=O)=O)c(S)cc2Cl)cc1 | NCI-H23 lung | inactive |
| O=C1CCCCN1CCCCC#Cc1cccc(C#Cc2cccnc2)c1 | NCI-H23 lung | inactive |
| CN1/C(=C\C=C\C2=[N+](C)c3ccccc3C2(C)C)C(C)(C)c2ccccc21 | NCI-H23 lung | active |
| CC(C)(C)OC(=O)NCCCCCCCn1c2c(c3ccccc3c1=O)C(=O)c1ccccc1-2 | NCI-H23 lung | inactive |

Can you look up the reported call for "CNC(=O)c1nn(C)c2c1C(C)(C)Cc1cnc(Nc3ccc(N4CCN(C)CC4)cc3)nc1-2" for me?
inactive

Can you look up the reported call for "C=C1C[C@@H]2CC[C@@]34C[C@H]5O[C@H]6[C@@H](O3)[C@H]3O[C@H](CC[C@@H]3O[C@H]6[C@@H]5O4)CC(=O)C[C@@H]3[C@@H](OC)[C@@H](C[C@H](O)CN)O[C@H]3C[C@H]3O[C@@H](CC[C@@H]1O2)C[C@@H](C)C3=C" for me?
active

* * *

# System: OVCAR-5 ovarian
# PROCEDURE TEXT: NCI tumour cell line growth inhibition, 48 h
REPORTED PROPERTY: TGI

| COMPOUND | TGI |
| --- | --- |
| COC1=C(C)C(=O)c2c(c(COC(N)=O)c3n2CC(OC(C)=O)C3OC(C)=O)C1=O (configuration not stated) | 0.652 µM |
| CCC(=O)Nc1nc2c(ncn2C2OC(COC(=O)CC)C(OC(=O)CC)C2OC(=O)CC)c(=O)[nH]1 (configuration not stated) | > 100 µM |
| O=C(O)[C@H](c1ccccc1)[C@@H](C(=O)O)c1ccccc1 | > 100 µM |
| COC1CC(OC2CCC3(C)C(=CCC4C3C(OC(C)=O)C(OC(=O)CC(C)C)C3(C)C(C(C)=O)CCC43O)C2)OC(C)C1OC1CC(OC)C(OC2CC(OC)C(OC3OC(C)C(OC4OC(CO)C(O)C(O)C4O)C(OC)C3O)C(C)O2)C(C)O1 (configuration not stated) | > 75 µM |
| Cc1cnc2c(c1)C(=O)C1=C(C2=O)C2OC(=O)CC2OC1(C)C (configuration not stated) | 0.951 µM |
| Cc1cc(N(CCC#N)CCC#N)ccc1/C=C(\NC(=O)/C=C/c1ccccc1)C(=O)NN | > 100 µM |
| COc1cc(/C=C/C=C2\CC/C(=C\C=C\c3ccc(O)c(OC)c3)C2=O)ccc1O | > 100 µM |
| NC(=S)NN/C=C(\C=Nc1ccccc1)[N+](=O)[O-] | > 100 µM |

TGI reported for this compound "N#Cc1c(-c2ccccc2)cc(-c2ccc(Cl)cc2)[nH]c1=S" : > 100 µM

TGI reported for this compound "CSc1nnc(COc2ccc(Cl)cc2)o1" : > 100 µM

TGI reported for this compound COc1ccc(N(C(=O)Nc2ccc(Cl)c(Cl)c2)C2c3cccn3C(=O)N2c2ccc(Cl)c(Cl)c2)cc1 (configuration not stated) : > 100 µM

TGI reported for this compound "CCOP(=O)(/C=C\n1ccc(N)nc1=O)OCC" : > 100 µM

TGI reported for this compound "CN(C)CCNC(=O)c1cccc2nc(-c3ccccc3)oc12" : > 100 µM

TGI reported for this compound "Nc1ccc(/C=C/C(=O)NCc2cc3cc(-c4ccc(C(=O)N5CCC(F)(F)CC5)cc4)cc(-c4ccc(F)cc4)c3o2)cn1" : > 100 µM

TGI reported for this compound "CO[C@]12C[C@H](CNC(=O)c3ccc[nH]3)O[C@H]1NC(=O)N2" : > 100 µM

TGI reported for this compound "Oc1[nH]c2ccccc2c1N=NC(=S)Nc1ccc(Cl)cc1" : > 100 µM

TGI reported for this compound "COc1nc(C#CC(C)(C)C)nc(OC)n1" : 42.5 µM
